Assay: Phase 2 Friedreich's ataxia study, observed PK
Assay type: in vivo
Conditions: human, plasma, oral, 200 mg, AUC0‐8 h, geometric mean, 200 mg TID, Day 91
observed_property: AUC (ng·h/mL)
Number in ng·h/mL, nothing else.

Given `CC(C)=CCC/C(C)=C/CC/C(C)=C/CC[C@@](C)(O)CCC1=C(C)C(=O)C(C)=C(C)C1=O` , state its recorded AUC.
1950

###

Assay: Unbound fraction in plasma
Format: in vitro ADME
Conditions: human
observed_property: fraction unbound
// return a plain number; no unit text

Given `CC(C)=CCC/C(C)=C/CC/C(C)=C/CC[C@@](C)(O)CCC1=C(C)C(=O)C(C)=C(C)C1=O` , state its recorded fraction unbound.
0.022

###

Experiment: Phase 2 Friedreich's ataxia study, observed PK
Type: in vivo
Settings: human, plasma, oral, 400 mg, AUC0‐8 h, geometric mean, 400 mg TID, Day 91
observed_property: AUC (ng·h/mL)
Number in ng·h/mL, nothing else.

Given CC(C)=CCC/C(C)=C/CC/C(C)=C/CC[C@@](C)(O)CCC1=C(C)C(=O)C(C)=C(C)C1=O [Vatiquinone, alpha‐tocotrienol quinone] , state its recorded AUC.
3490
